target: human sodium channels Nav 1.8 (Homo sapiens); test: Automated whole-cell voltage-clamp (ScreenPatch 384P) sodium current block, Nav 1.8; settings: CHO cells stably expressing human Nav 1.8; inactivation step -40 mV for 8 seconds, test step 10 mV (TP1A); exposure at least five minutes; room temperature; mean if two or more assays; read-out: Nav1.8 IC50
Sequence (Q9Y5Y9 whole entry): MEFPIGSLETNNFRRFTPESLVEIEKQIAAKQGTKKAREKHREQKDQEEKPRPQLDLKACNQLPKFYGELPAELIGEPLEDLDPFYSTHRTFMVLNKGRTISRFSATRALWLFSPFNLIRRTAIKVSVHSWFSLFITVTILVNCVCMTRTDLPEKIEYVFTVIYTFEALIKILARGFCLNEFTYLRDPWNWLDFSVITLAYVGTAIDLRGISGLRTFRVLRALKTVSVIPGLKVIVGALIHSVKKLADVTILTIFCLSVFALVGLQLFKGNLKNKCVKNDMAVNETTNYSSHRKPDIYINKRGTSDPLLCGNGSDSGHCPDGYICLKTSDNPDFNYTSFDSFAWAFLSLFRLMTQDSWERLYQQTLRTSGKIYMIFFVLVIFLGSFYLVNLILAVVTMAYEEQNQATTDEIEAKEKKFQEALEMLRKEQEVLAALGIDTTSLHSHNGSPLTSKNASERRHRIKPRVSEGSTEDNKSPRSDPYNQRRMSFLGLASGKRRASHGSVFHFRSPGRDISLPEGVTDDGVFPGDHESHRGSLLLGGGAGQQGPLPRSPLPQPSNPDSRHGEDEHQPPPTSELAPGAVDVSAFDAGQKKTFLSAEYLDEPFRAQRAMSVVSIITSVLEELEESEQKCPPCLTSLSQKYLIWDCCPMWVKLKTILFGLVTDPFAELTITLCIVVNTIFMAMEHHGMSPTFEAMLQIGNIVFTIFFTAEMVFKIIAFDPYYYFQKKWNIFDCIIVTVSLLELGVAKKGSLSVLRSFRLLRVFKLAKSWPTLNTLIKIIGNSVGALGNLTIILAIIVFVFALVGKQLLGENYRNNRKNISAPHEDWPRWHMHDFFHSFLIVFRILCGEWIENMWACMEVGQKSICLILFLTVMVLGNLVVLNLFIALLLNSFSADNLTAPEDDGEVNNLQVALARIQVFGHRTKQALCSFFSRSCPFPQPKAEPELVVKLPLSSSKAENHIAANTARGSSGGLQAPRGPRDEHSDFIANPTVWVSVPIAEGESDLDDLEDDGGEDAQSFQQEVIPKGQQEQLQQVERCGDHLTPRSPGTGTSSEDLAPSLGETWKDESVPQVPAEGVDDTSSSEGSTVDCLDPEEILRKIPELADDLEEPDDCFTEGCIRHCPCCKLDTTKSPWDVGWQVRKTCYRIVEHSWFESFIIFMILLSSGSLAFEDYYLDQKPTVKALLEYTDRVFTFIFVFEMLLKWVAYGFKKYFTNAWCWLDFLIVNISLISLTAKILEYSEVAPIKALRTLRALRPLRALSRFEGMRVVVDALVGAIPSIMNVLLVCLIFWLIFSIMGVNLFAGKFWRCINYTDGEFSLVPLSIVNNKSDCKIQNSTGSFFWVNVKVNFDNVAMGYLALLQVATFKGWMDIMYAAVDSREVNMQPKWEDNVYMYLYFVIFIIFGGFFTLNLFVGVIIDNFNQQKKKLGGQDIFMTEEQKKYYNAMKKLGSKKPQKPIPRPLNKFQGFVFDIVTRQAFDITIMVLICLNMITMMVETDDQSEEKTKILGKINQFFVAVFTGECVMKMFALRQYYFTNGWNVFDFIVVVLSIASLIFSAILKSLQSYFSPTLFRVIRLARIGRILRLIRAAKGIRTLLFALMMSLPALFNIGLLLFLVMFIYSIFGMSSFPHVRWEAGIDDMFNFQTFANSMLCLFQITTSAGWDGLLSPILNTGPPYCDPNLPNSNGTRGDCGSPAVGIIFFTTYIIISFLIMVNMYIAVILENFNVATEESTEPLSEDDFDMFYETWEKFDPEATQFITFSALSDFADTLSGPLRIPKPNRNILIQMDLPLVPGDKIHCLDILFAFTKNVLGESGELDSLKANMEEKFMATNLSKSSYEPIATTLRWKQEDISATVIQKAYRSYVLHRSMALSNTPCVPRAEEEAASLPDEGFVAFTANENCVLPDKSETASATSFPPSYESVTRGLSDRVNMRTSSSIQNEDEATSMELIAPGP
Quick list: IC50 per entry.
metric-name: IC50

> print(dat)
                                    compound                       experimental.system        measured
 1  CCOc1ccc(-c2cncc(C(=O)NOCc3c[nH]nc3C)n2)cn1 [Compound 69]  human sodium channels Nav 1.8 (Homo sapiens)       > 1000 nM
 2  O=C(NOCc1ccccc1F)c1cncc(-c2ccc(OC(F)(F)F)nc2)n1 [Compound 71]  human sodium channels Nav 1.8 (Homo sapiens)        < 500 nM
 3  CCOc1ccc(-c2cncc(C(=O)NOCc3cc(C(C)N)ccc3F)n2)cn1 (stereo not drawn) [Compound 45]  human sodium channels Nav 1.8 (Homo sapiens)       > 1000 nM
 4  CN(C)c1cnc(F)c(CONC(=O)c2cncc(-c3ccc(OC(F)F)nc3)n2)c1 [Compound 80]  human sodium channels Nav 1.8 (Homo sapiens)  500 to 1000 nM
 5  CCOc1ccc(-c2cncc(C(=O)NOCc3cc(C)cc(C)c3)n2)cc1 [Compound 21]  human sodium channels Nav 1.8 (Homo sapiens)       > 1000 nM
 6  CCOc1ccc(-c2nc(C(=O)NOCc3cc(OC)ccc3F)cnc2F)cn1 [Compound 104]  human sodium channels Nav 1.8 (Homo sapiens)        < 500 nM
 7  COc1cnc(F)c(CONC(=O)c2cncc(-c3ccc(OC(F)F)nc3)n2)c1 [Compound 78]  human sodium channels Nav 1.8 (Homo sapiens)       > 1000 nM
 8  CCOc1ccc(-c2cncc(C(=O)NOCc3ncoc3C)n2)cn1 [Compound 57]  human sodium channels Nav 1.8 (Homo sapiens)       > 1000 nM
 9  CCOc1ccc(-c2cncc(C(=O)NOCc3ccccc3F)n2)cc1 [Compound 4]  human sodium channels Nav 1.8 (Homo sapiens)        < 500 nM
10  CCOc1ccc(-c2cncc(C(=O)NOCc3ccnn3C(C)C)n2)cn1 [Compound 64]  human sodium channels Nav 1.8 (Homo sapiens)       > 1000 nM
11  COc1cccc(CONC(=O)c2cncc(-c3ccc(OC(F)(F)F)nc3)n2)c1 [Compound 72]  human sodium channels Nav 1.8 (Homo sapiens)        < 500 nM
12  COc1ccc(F)c(CONC(=O)c2cncc(-c3ccc(OC(F)F)nc3)c2)c1 [Compound 116]  human sodium channels Nav 1.8 (Homo sapiens)        < 500 nM
13  CCOc1ccc(-c2cncc(C(=O)NOCc3cncc(OC)c3)n2)cc1 [Compound 8]  human sodium channels Nav 1.8 (Homo sapiens)       > 1000 nM
14  CCOc1ccc(-c2cncc(C(=O)NOCc3cc(OC)ccc3F)n2)cc1O [Compound 89]  human sodium channels Nav 1.8 (Homo sapiens)        < 500 nM
15  CCOc1ccc(-c2cncc(C(=O)NOCc3cncc(OC)c3)n2)cn1 [Compound 36]  human sodium channels Nav 1.8 (Homo sapiens)        < 500 nM
16  CCOc1ccc(-c2nc(C(=O)NOCc3cc(OC)ccc3F)cnc2O)cn1 [Compound 100]  human sodium channels Nav 1.8 (Homo sapiens)        < 500 nM
17  CCOc1ccc(-c2cncc(C(=O)NOCc3cc(OC)cnc3C)n2)cn1 [Compound 46]  human sodium channels Nav 1.8 (Homo sapiens)       > 1000 nM
18  CCOc1ccc(-c2cncc(C(=O)NOCc3ccnn3CC)n2)cn1 [Compound 62]  human sodium channels Nav 1.8 (Homo sapiens)       > 1000 nM
